test: Toxicity to uninfected MA 104 cells; assay type: cell-based; conditions: monkey, read-out: CC50, concentration that kills 50% of uninfected cells
reported-endpoint: CC50 at 72 h

>  <compound>
CCOC(=O)C(Cc1ccccc1)NP(=O)(COCCn1cnc2c(N)ncnc21)NC(Cc1ccccc1)C(=O)OCC (stereo not shown)

>  <experimental-value>
80 µM

$$$$
>  <compound>
CC(NP(=O)(COCCn1cnc2c(N)ncnc21)NC(C)C(=O)OCc1ccccc1)C(=O)OCc1ccccc1 (stereo not shown)

>  <experimental-value>
> 100 µM

$$$$
>  <compound>
Nc1ncnc2c1ncn2CCOCP(=O)(NCC(=O)OCc1ccccc1)NCC(=O)OCc1ccccc1

>  <experimental-value>
> 100 µM

$$$$
>  <compound>
CC(C)CC(NP(=O)(COCCn1cnc2c(N)ncnc21)NC(CC(C)C)C(=O)OC(C)(C)C)C(=O)OC(C)(C)C (stereo not shown)

>  <experimental-value>
> 100 µM

$$$$
>  <compound>
Nc1ncnc2c1ncn2CCOCP(=O)(NC(Cc1ccccc1)C(=O)OCc1ccccc1)NC(Cc1ccccc1)C(=O)OCc1ccccc1 (stereo not shown)

>  <experimental-value>
20 µM

$$$$
>  <compound>
CCOC(=O)C(CC(C)C)NP(=O)(COCCn1cnc2c(N)ncnc21)NC(CC(C)C)C(=O)OCC (stereo not shown)

>  <experimental-value>
> 100 µM

$$$$

Now for a further compound.
Q) Return reported CC50 at 72 h; argument: "CCOC(=O)CNP(=O)(COCCn1cnc2c(N)ncnc21)NCC(=O)OCC"
A) > 100 µM

---

assay: in vitro; assay type: cell-based; details: monkey, ma 104 cells
reported-endpoint: CC50 (µM)
Write it as a number; the unit µM goes unstated.

Q) Return reported CC50; argument: Nc1ncnc2c1ncn2CCOCP(=O)(O)O [PMEA, reference compound]
A) 2000

---

assay: Toxicity to uninfected MA 104 cells; format: cell-based; conditions: monkey, read-out: CC50, concentration that kills 50% of uninfected cells
reported-endpoint: CC50 at 72 h

>  <molecule>
CC(C)(C)OC(=O)CNP(=O)(COCCn1cnc2c(N)ncnc21)NCC(=O)OC(C)(C)C [Ex 11]

>  <reported-endpoint>
CC50 at 72 h

>  <experimental-value>
> 100 µM

$$$$

Q) Return reported CC50 at 72 h; argument: CCOC(=O)C(C)NP(=O)(COCCn1cnc2c(N)ncnc21)NC(C)C(=O)OCC (stereo not drawn) [Ex 5]
A) > 100 µM

Q) Please give the result for CC(NP(=O)(COCCn1cnc2c(N)ncnc21)NC(C)C(=O)OC(C)(C)C)C(=O)OC(C)(C)C (stereo not drawn) [Ex 10] too.
A) > 100 µM

---

experiment: in vivo; conditions: rhesus monkey, po
reported-endpoint: bioavailability

Q) Return reported bioavailability; argument: CC(C)(C)C(=O)OCOP(=O)(COCCn1cnc2c(N)ncnc21)OCOC(=O)C(C)(C)C [bis(POM)PMEA, reference compound]
A) ~25%

---

Tested on: HCMV
Test: Activity against HCMV in tissue culture (NHDF cell line)
Assay type: cell-based
Settings: Human betaherpesvirus 5
From the text: The title compound was synthesized using N^4 -benzoyl HPMPC diethyl ester tritylated at the hydroxyl group as a starting material. The starting material was detritylated using acetic acid and then converted to N^4 -benzoyl HPMPC using TMSBr. The resulting compound was converted to N^4 -benzoyl cHPMPC using DCC and morpholine in pyridine.
reported-endpoint: IC50

>  <compound>
O=C(Nc1ccn(C[C@H]2COP(=O)(O)CO2)c(=O)n1)c1ccccc1 [N^4 -benzoyl cHPMPC]

>  <IC50>
22 µM

$$$$

Q) Return reported IC50; argument: Nc1ccn(C[C@@H](CO)OCP(=O)(O)O)c(=O)n1 [HPMPC]
A) 0.4 µM
